Biological target: GABA-B receptor (Homo sapiens, UniProt O75899+Q9UBS5)
Sequence (Q9UBS5 whole entry): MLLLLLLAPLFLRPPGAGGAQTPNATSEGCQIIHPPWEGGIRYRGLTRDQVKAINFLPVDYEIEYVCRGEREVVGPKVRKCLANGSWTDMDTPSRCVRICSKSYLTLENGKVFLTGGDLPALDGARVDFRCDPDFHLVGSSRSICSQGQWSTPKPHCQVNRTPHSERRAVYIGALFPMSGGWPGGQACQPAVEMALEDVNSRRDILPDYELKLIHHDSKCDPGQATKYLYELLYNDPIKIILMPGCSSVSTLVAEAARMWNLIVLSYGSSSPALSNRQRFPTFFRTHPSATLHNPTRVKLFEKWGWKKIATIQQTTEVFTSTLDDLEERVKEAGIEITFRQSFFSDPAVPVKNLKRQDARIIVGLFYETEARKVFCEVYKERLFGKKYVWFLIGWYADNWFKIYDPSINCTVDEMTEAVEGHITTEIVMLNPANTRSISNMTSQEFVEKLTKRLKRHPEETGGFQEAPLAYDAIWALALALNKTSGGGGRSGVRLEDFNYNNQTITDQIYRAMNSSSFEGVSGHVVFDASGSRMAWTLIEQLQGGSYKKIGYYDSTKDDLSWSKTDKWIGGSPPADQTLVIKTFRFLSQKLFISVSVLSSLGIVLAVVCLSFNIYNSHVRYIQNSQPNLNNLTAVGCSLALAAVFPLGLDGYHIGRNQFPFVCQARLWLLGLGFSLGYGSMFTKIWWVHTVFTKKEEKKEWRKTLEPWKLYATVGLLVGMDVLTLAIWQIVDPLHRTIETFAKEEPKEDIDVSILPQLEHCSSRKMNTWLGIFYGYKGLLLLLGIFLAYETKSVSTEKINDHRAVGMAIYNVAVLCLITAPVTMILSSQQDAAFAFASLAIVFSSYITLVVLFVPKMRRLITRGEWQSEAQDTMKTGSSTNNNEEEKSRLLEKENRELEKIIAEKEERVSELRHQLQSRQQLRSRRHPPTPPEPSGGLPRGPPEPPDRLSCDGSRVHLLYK
Sequence (O75899 whole entry): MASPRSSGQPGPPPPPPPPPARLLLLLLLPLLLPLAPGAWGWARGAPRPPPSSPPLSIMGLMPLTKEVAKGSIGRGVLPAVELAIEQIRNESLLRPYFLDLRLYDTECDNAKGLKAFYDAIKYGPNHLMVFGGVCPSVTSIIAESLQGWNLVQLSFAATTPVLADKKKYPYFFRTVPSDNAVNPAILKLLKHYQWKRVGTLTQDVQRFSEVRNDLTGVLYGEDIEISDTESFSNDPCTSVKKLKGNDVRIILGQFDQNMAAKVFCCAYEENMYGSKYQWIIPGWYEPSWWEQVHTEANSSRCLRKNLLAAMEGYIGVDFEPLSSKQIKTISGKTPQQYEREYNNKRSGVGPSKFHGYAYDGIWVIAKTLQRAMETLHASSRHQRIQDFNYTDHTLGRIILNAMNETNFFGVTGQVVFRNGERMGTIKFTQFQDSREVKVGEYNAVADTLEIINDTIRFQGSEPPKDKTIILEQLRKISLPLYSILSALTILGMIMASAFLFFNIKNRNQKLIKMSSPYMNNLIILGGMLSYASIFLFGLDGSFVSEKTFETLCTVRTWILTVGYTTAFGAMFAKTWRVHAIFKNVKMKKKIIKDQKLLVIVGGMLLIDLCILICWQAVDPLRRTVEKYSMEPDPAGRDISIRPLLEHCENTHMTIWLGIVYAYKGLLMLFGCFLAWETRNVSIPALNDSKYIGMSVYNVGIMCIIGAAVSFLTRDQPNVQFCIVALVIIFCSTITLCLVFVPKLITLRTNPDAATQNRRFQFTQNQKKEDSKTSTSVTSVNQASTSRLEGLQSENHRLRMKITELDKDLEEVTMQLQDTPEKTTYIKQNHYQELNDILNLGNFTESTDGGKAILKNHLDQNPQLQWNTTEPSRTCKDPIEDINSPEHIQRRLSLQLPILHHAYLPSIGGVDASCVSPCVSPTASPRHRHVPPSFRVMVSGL
Test: Activation of human GABAB1/GABAB2 expressed in HEK293 cells co-transfected with rat CaV2.2 channel assessed as reduction in CaV2.2-mediated peak-current amplitude in response to the depolarizing pulse by whole cell patch clamp assay
Peptide text beside a SMILES is read from it.
Record form. Attribute: pIC50. Fill in for each entry.
One number for each entry, as −log10 of the molar value.

{"MOLECULE": "CC[C@H](C)[C@H](NC(=O)[C@H](CCC(=O)O)NC(=O)[C@@H]1CCCN1C(=O)[C@H](Cc1cnc[nH]1)NC(=O)[C@H](CC(=O)O)NC(=O)[C@H](Cc1ccc(O)cc1)NC(=O)[C@H](CCCNC(=N)N)NC(=O)[C@H](CS)NC(=O)[C@H](CCCNC(=N)N)NC(=O)[C@@H]1CCCN1C(=O)[C@H](CC(=O)O)NC(=O)[C@H](CO)NC(=O)[C@H](CS)NC(=O)[C@@H](N)CS)C(=O)N[C@@H](CS)C(N)=O (H-CCSDPRCRYDHPEIC-NH2)", "ASSAY READOUT": "pIC50", "OBSERVED RESULT": 7.63}

// for each molecule in input: emit pIC50
1. CC[C@H](C)[C@H](NC(=O)[C@H](CCC(=O)O)NC(=O)[C@@H]1CCCN1C(=O)[C@H](Cc1cnc[nH]1)NC(=O)[C@H](CC(=O)O)NC(=O)[C@H](Cc1ccc(O)cc1)NC(=O)[C@H](CC(N)=O)NC(=O)[C@H](CS)NC(=O)[C@H](CCCNC(=N)N)NC(=O)[C@@H]1CCCN1C(=O)[C@H](CC(=O)O)NC(=O)[C@H](CO)NC(=O)[C@H](CS)NC(=O)[C@H](CS)NC(=O)CNC(=O)c1ccccc1)C(=O)N[C@@H](CS)C(N)=O
2. CC[C@H](C)[C@H](NC(=O)[C@H](CCC(=O)O)NC(=O)[C@@H]1CCCN1C(=O)[C@H](Cc1cnc[nH]1)NC(=O)[C@H](CC(=O)O)NC(=O)[C@H](Cc1ccc(O)cc1)NC(=O)[C@H](CCCNC(=N)N)NC(=O)[C@H](CS)NC(=O)[C@H](CCCNC(=N)N)NC(=O)[C@@H]1CCCN1C(=O)[C@H](CC(=O)O)NC(=O)[C@H](CO)NC(=O)[C@H](CS)NC(=O)[C@H](CS)NC(=O)CNC(C)=O)C(=O)N[C@@H](CS)C(N)=O (Ac-GCCSDPRCRYDHPEIC-NH2)

8.92
7.72

Hey, can you go through the list below and give me pIC50 for every item?
1. CC[C@H](C)[C@H](NC(=O)[C@H](CCC(=O)O)NC(=O)[C@@H]1CCCN1C(=O)[C@H](Cc1cnc[nH]1)NC(=O)[C@H](CO)NC(=O)[C@H](Cc1ccc(O)cc1)NC(=O)[C@H](CCCNC(=N)N)NC(=O)[C@H](CS)NC(=O)[C@H](CCCNC(=N)N)NC(=O)[C@@H]1CCCN1C(=O)[C@H](CC(=O)O)NC(=O)[C@H](CO)NC(=O)[C@H](CS)NC(=O)[C@H](CS)NC(=O)CN)C(=O)N[C@@H](CS)C(N)=O (H-GCCSDPRCRYSHPEIC-NH2)
2. CC[C@H](C)[C@H](NC(=O)[C@H](CCC(=O)O)NC(=O)[C@@H]1CCCN1C(=O)[C@H](Cc1cnc[nH]1)NC(=O)[C@H](CC(=O)O)NC(=O)[C@H](Cc1ccc(O)cc1)NC(=O)[C@H](CC(N)=O)NC(=O)[C@H](CS)NC(=O)[C@H](CCCNC(=N)N)NC(=O)[C@@H]1CCCN1C(=O)[C@H](CC(=O)O)NC(=O)[C@H](CO)NC(=O)[C@H](CS)NC(=O)[C@H](CS)NC(=O)CN)C(=O)N[C@@H](CS)C(N)=O

1. 7.73
2. 8.62
